The measured values listed here are drawn from the supplement of paper PMC9170038.

# System: K4 kissing-loop RNA reporter;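 further: bound reporter read as fluorescence of individual clusters on recovered sequencing chips by microscopy, with normalized cluster intensities fitted with a binding model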
# procedure.summary: apparent KD of K4 kissing-loop reporter; higher = weaker reporter binding
# assay.context: Eterna round: R107; input ligand: theophylline 20 uM
Lab note: compare apparent KD of K4 kissing-loop reporter against 0.2 µM. Equal or greater, write y. Smaller, write n.

Consider the following illustrative entries.
| sequence.content | category.label |
| --- | --- |
| UUUAUAUUGUCGGCCGCCACUGGAUCAAUAUUUGUAUGAUCUAGUUCAAAGUGAUGUUUUGAGUCCAGGACCGGGACAUUUGUUA [JR_ExcTryptoB_Sub005] | y |
| CCUGCAGCUGUUACCGAGGGAUGCUACGGACGAGGACCGGUACGGCCGCCACUCGCCAGUGAUGUUGGUGAGGGAGGACGUUCCU [Georte] | n |
| UGGAGUUGACGAAAAGUCAACUCCUGGGAAGGAGCGGACGAAAGUCCAGGUAGGUCGCCCACUACCAGUGAUGUUGGUACCUAAA | y |
| AAAAUAAUCCAGUGAUGUUGGUAACCAGAUACCAGCGACGAAAGUCGCCCUUGGCAGCUGUGGACGUACAAAAUAAGUACGUCCU | y |
| AAGGACUGCCAGGGAACACACUCAUUAUGGGAGGAUAUGUUAGCUGACAGAAGGCCCAGUGAUGUUGGGCCGGCGGGCUGUCAGG [Diargean] | y |
| GUUAAAUAAAUGGGCAUAGUGAUGUUGUGUCGAGGACCGGUACGGCCGCCACUCGAGCUAGCAUGCCGGUCAUUAUGGGUAGUUU [theeternabot_exclusion_KL_Trp_A_46] | n |

Is reported apparent KD of K4 kissing-loop reporter greater than or equal to 0.2 µM here: GUGAUAUCGCAAGGAUAUCCAAUUUCUGCGGAUAAGUGAUGUUUGGCGCCGCCUCAGUUAUGGCAAGGAGAAGGUGCGGCCUAGC [theeternabot_sameState_KL_FMN_B_28]
y

Try UUAGAUCUUCUAGAUACCAGUCUGUGUAUCAAUGAUACACUUGACUGAGUGAUGUUCAGAGGCCCUUGGCAGCUAGAAGAUCAUU [AK1 SS Theophylline B] next.
y
